Biological target: T1, monomeric huBDCA2 ectodomain (human, UniProt Q8WTT0 45-213)
T1 construct: Prepared by proteolytic cleavage of the purified muIgG2a Fc-huBDCA2 fusion protein (pEAG2423); also called human BDCA2 ectodomain; human BDCA2 ECD
T1 sequence: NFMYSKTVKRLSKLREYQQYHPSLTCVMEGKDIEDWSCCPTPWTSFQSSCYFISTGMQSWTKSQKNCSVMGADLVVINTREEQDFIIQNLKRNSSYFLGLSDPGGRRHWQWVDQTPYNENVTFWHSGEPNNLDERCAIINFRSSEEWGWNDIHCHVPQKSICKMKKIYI
Assay: Octet, mAb from conditioned medium on anti-human Fc tips, monomeric huBDCA2 in solution
assay-metric: koff (s⁻¹)
Numbers only, in s⁻¹.

>  <binder>
hu24F4 H4/L1 S95T (antibody, human IgG1, V domains shown, Human IgG1/kappa; conditioned medium of 293E cells; also called H4-L1-C95T (YL750/YL746); hu24F4 H4/L1 C95T) VH: DVQLVESGGGLVKPGGSLRLSCAASGFTFSTYTMSWVRQAPGKGLEWVATISPGDSFGYYYPDSVQGRFTISRDNAKNSLYLQMNSLRAEDTAVYYCTRDIYYNYGAWFAYWGQGTLVTVSS VL: DIQLTQSPSSLSASVGDRVTITCKASQSVDYDGDSYMNWYQQKPGKAPKLLIYAASTLESGVPSRFSGSGSGTDFTLTISSLQPEDFATYYCQQTNEDPRTFGQGTKVEIK

>  <unit-of-measure>
s⁻¹

>  <koff>
0.00037

$$$$
>  <binder>
hu24F4 H4/L1 (C95S) (antibody, V domains shown, Human IgG1/kappa; also called 24F4-H4/L1 (YL740/YL746); 24F4S) VH: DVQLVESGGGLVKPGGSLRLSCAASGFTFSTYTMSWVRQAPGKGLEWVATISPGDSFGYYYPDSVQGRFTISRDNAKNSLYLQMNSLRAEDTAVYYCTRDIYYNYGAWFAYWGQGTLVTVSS VL: DIQLTQSPSSLSASVGDRVTITCKASQSVDYDGDSYMNWYQQKPGKAPKLLIYAASTLESGVPSRFSGSGSGTDFTLTISSLQPEDFATYYCQQSNEDPRTFGQGTKVEIK

>  <unit-of-measure>
s⁻¹

>  <koff>
0.000398

$$$$

For every listed record, write down its koff.
1. hu24F4 H4/L1 S95C (antibody, human IgG1, V domains shown, Human IgG1/kappa; conditioned medium of 293E cells; also called H4-L1-S95C (YL749/YL746)) VH: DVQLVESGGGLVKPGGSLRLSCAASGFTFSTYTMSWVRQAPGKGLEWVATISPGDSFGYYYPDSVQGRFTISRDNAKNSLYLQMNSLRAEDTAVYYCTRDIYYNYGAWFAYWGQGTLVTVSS VL: DIQLTQSPSSLSASVGDRVTITCKASQSVDYDGDSYMNWYQQKPGKAPKLLIYAASTLESGVPSRFSGSGSGTDFTLTISSLQPEDFATYYCQQCNEDPRTFGQGTKVEIK
2. hu24F4 H4/L1 S95V (antibody, human IgG1, V domains shown, Human IgG1/kappa; conditioned medium of 293E cells; also called H4-L1-C95V (YL752/YL746)) VH: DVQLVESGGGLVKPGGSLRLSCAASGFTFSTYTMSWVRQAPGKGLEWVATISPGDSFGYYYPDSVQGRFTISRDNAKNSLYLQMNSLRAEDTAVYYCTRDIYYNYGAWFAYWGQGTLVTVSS VL: DIQLTQSPSSLSASVGDRVTITCKASQSVDYDGDSYMNWYQQKPGKAPKLLIYAASTLESGVPSRFSGSGSGTDFTLTISSLQPEDFATYYCQQVNEDPRTFGQGTKVEIK

Result:
0.000279
0.000301
